src = patent US20230374132A1

system: T1, human CD3 complex on Jurkat cells (human, UniProt P07766 23-207; P04234 22-171; P09693 23-182)
T1 construct: whole, on cells; natural CD3 complex of Jurkat T cells (also used here for CD3 on T cells of human PBMC); also called human CD3 at the cell level; CD3 on T cells
T1 sequence (P07766 23-207, chain 1 of 3): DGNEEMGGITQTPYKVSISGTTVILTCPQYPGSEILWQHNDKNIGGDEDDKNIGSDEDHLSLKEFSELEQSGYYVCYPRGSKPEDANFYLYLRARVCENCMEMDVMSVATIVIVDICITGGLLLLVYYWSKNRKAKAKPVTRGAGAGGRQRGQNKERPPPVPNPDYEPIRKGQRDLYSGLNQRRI
T1 sequence (P04234 22-171, chain 2 of 3): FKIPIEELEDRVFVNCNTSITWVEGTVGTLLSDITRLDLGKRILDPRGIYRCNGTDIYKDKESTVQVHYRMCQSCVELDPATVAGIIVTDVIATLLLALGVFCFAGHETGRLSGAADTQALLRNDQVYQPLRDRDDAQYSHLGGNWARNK
T1 sequence (P09693 23-182, chain 3 of 3): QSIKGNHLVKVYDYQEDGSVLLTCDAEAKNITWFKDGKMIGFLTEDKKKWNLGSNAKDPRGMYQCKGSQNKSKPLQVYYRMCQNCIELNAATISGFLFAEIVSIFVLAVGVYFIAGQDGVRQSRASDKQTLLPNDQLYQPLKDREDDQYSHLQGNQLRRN
test_summary: flow cytometry on Jurkat cells (human CD3 complex), 'Jurkat cell line binding', Example 3.2 [cont) D]
measured_quantity: pEC50
// pEC50 here means minus log10 of the molar concentration (mol/L)

As a guide, the following entries are already answered.
1) hzsp34.40 (antibody, human IgG1, kappa, L234A L235A, V domains shown, IgG1 L234A L235A, kappa) VH: EVQLVESGGGLVQPGGSLKLSCAASGFTFNTYAMNWVRQASGKGLEWVARIRSKYNNYATYYADSVKDRFTISRDDSKSTLYLQMNSLKTEDTAVYYCARHGNFGQSYVSWFAYWGQGTTVTVSS VL: EIVMTQSPATLSVSPGERATLSCRSSTGAVTTSNYANWVQQKPGQAPRGLIGGTNKRAPGVPARFSGSGSGTEFTLTISSLQSEDFAVYYCALWYSNLWVFGQGTKLTVLR = 7.04
2) hzsp34.45 (antibody, human IgG1, kappa, L234A L235A, V domains shown, IgG1 L234A L235A, kappa) VH: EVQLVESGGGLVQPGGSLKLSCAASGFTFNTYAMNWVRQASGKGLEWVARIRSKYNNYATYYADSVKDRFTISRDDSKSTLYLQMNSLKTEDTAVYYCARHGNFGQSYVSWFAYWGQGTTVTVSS VL: EIVMTQSPATLSVSPGERATLSCRSSTGAVTTSNYANWVQQKPGQAPRGLIGGTNKRAPGVPARFSGSGSGDEFTLTISSLQSEDFAVYYCALWYSNLWVFGQGTKLTVLR = 6.91

Query binder follows.
Qu. Report pEC50 for hzsp34.38 (antibody, human IgG1, kappa, L234A L235A, V domains shown, IgG1 L234A L235A, kappa) VH: EVQLVESGGGLVQPGGSLKLSCAASGFTFNTYAMNWVRQASGKGLEWVGRIRSKYNNYATYYADSVKDRFTISRDDSKSTLYLQMNSLKTEDTAVYYCARHGNFGNSYVSWFAYWGQGTTVTVSS VL: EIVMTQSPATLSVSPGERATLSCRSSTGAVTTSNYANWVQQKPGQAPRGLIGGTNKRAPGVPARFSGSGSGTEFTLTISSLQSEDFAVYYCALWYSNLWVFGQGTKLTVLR please.
Ans. 8.10
